Measured values drawn from patent US20250011397A1 for this set.

target: T1, SARS-CoV-2 receptor binding domain (RBD), wild type, His-tagged (BEI NR52309) (SARS-CoV-2, UniProt P0DTC2 319-541); assay: RBD KD column; method and antibody format not stated
T1 construct: also called WT RBD
pKd: −log10 of the molar value.
Measured pKd of individual entries

{"BINDER": "mAb 64 (antibody, V domains shown, also called IgG 64) VH: EVQLLESGGGLVQPGGSLRLSCAASGFPFSQHGMHWVRQAPGKGLEWVSAIDRSGSYIYYADSVKGRFTISRDNSKNTLYLQMNSLRAEDTAVYYCARDTYGGKVTYFDYWGQGTLVTVSS VL: DIQMTQSPSSLSASVGDRVTITCRASQGISSHLAWYQQKPGKAPKLLIYDASNLETGVPSRFSGSGSGTDFTLTISSLQPEDFATYYCQQTYSTPWTFGQGTKVEIKR", "pKd": 7.01}
{"BINDER": "mAb 120 (antibody, V domains shown, also called IgG 120) VH: QVQLVQSGAEVKKPGASVKVSCKASGYTFTSYDINWVRQAPGQGLEWMGMIDPSGGSTSYAQKFQGRVTMTRDTSTSTVYMELSSLRSEDTAVYYCAKDFGGGTRYDYWYFDLWGRGTLVTVSS VL: EIVMTQSPATLSVSPGERATLSCRASQSVSSRYLAWYQQKPGQAPRLLIYGASTRATGIPARFSGSGSGTEFTLTISSLQSEDFAVYYCQQYYTTPRTFGQGTRLEIKR", "pKd": 7.62}
{"BINDER": "mAb 349 (antibody, V domains shown, also called IgG 349) VH: EVQLLESGGGLVQPGGSLRLSCAASGFTFSNYGMHWVRQAPGKGLEWVSGISSAGSITNYADSVKGRFTISRDNSKNTLYLQMNSLRAEDTAVYYCAGNHAGTTVTSEYFQHWGQGTLVTVSS VL: DIQMTQSPSSLSASVGDRVTITCRASQSISSWLAWYQQKPGKAPKLLIYDTSNLETGVPSRFSGSGSGTDFTLTISSLQPEDFATYYCQQSYTTPWTFGQGTRLEIKR", "pKd": 7.13}
{"BINDER": "mAb 324 (antibody, V domains shown, also called IgG 324) VH: QVQLVQSGAEVKKPGASVKVSCKASGGTFNNYGISWVRQAPGQGLEWMGWMNPNSGNTGYAQKFQGRVTMTRDTSTSTVYMELSSLRSEDTAVYYCARVGDYGDYIVSPFDLWGRGTLVTVSS VL: DIQMTQSPSSLSASVGDRVTITCRASQSITTYLNWYQQKPGKAPKLLIYDASNLETGVPSRFSGSGSGTDFTLTISSLQPEDFATYYCQQSYSTPPTFGQGTKVEIKR", "pKd": 6.95}
{"BINDER": "mAb 108 (antibody, V domains shown) VH: QVQLVQSGAEVKKPGASVKVSCKASGYIFSRYAIHWVRQAPGQGLEWMGWMNPISGNTDYAPNFQGRVTMTRDTSTSTVYMELSSLRSEDTAVYYCAKDGSQLAYLVEYFQHWGQGTLVTVSS VL: DIQMTQSPSSLSASVGDRVTITCRASQVITNNLAWYQQKPGKAPKLLIYDASTLETGVPSRFSGSGSGTDFTLTISSLQPEDFATYYCQQSYTFPYTFGQGTKVEIKR", "pKd": 7.14}
